These entries and their values trace back to ChEMBL document CHEMBL4043212.

test system: MDA-MB-231; experiment: Cytotoxicity against human MDA-MB-231 cells assessed as inhibition of cell growth incubated for 72 hrs by SRB assay; assay type: functional; settings: Homo sapiens, MDA-MB-231, 72 h
Task for the reader: assign each of the following compounds its reported GI50.
I only need the number, in µM, no unit after it.

**Q:** Any idea what GI50 was measured for CCn1cc(-c2cc(-c3ccc(OC)cc3)c3c(cnc4ccccc43)n2)c2ccccc21 ?
**A:** 3.04

**Q:** Any idea what GI50 was measured for COc1ccc(-c2cc(-c3cccc4ccccc34)nc3cnc4ccccc4c23)cc1 ?
**A:** 2.81

**Q:** Any idea what GI50 was measured for COc1cccc2c1C(=O)c1c(O)c3c(c(O)c1C2=O)C[C@@](O)(C(=O)CO)C[C@@H]3O[C@H]1C[C@H](N)[C@H](O)[C@H](C)O1 ?
**A:** 0.068

**Q:** Any idea what GI50 was measured for COc1ccc(-c2cc(-c3ccccc3)nc3cnc4ccccc4c23)cc1 ?
**A:** 7.28

----------
test system: MDA-MB-231; test: Cytotoxicity against human MDA-MB-231 cells assessed as inhibition of cell growth incubated for 72 hrs by SRB assay; assay type: functional; conditions: Homo sapiens, MDA-MB-231, 72 h
Task for the reader: assign each of the following compounds its reported GI50.
I only need the number, in µM, no unit after it.

**Q:** Please tell me: GI50 of COc1ccc(-c2cc(-c3ccc(Cl)cc3)nc3cnc4ccccc4c23)cc1 , system MDA-MB-231?
**A:** 2.94

**Q:** Please tell me: GI50 of COc1ccc(-c2cc(-c3ccc(N(C)C)cc3)nc3cnc4ccccc4c23)cc1 , system MDA-MB-231?
**A:** 2.3

**Q:** Please tell me: GI50 of COc1ccc(-c2cc(-c3ccccc3Cl)nc3cnc4ccccc4c23)cc1 , system MDA-MB-231?
**A:** 3.32

**Q:** Please tell me: GI50 of COc1ccc(-c2cc(-c3ccc(Br)cc3)nc3cnc4ccccc4c23)cc1 , system MDA-MB-231?
**A:** 2.58

**Q:** Please tell me: GI50 of COc1ccc(-c2cc(-c3cccs3)nc3cnc4ccccc4c23)cc1 , system MDA-MB-231?
**A:** 7.69

**Q:** Please tell me: GI50 of COc1ccc(-c2cc(-c3cccc(C#N)c3)nc3cnc4ccccc4c23)cc1 , system MDA-MB-231?
**A:** 1.79

----------
system: NUGC-3; experiment: Cytotoxicity against human NUGC3 cells assessed as inhibition of cell growth incubated for 72 hrs by SRB assay; type: functional; settings: Homo sapiens, NUGC-3, 72 h
Rule: measured GI50 below 2 µM gets 1 (yes); anything equal to or greater than 2 µM gets 0 (no).

**Q:** Is the reported GI50 for COc1ccc(-c2cc(-c3ccc(C(F)(F)F)cc3)nc3cnc4ccccc4c23)cc1 strictly below 2 µM?
**A:** 0 (no)

**Q:** Is the reported GI50 for COc1ccc(-c2cc(-c3ccc(OC)cc3)c3c(cnc4ccccc43)n2)cc1 strictly below 2 µM?
**A:** 0 (no)

**Q:** Is the reported GI50 for COc1cccc2c1C(=O)c1c(O)c3c(c(O)c1C2=O)C[C@@](O)(C(=O)CO)C[C@@H]3O[C@H]1C[C@H](N)[C@H](O)[C@H](C)O1 strictly below 2 µM?
**A:** 1 (yes)

**Q:** Is the reported GI50 for CCn1cc(-c2cc(-c3ccc(OC)cc3)c3c(cnc4ccccc43)n2)c2ccccc21 strictly below 2 µM?
**A:** 0 (no)

**Q:** Is the reported GI50 for COc1ccc(-c2cc(-c3ccc(Br)cc3)nc3cnc4ccccc4c23)cc1 strictly below 2 µM?
**A:** 1 (yes)

**Q:** Is the reported GI50 for COc1ccc(-c2cc(-c3cccc4ccccc34)nc3cnc4ccccc4c23)cc1 strictly below 2 µM?
**A:** 0 (no)

**Q:** Is the reported GI50 for CCCCCCn1cc(-c2cc(-c3ccc(OC)cc3)c3c(cnc4ccccc43)n2)c2ccccc21 strictly below 2 µM?
**A:** 0 (no)
